Molecular target: SARS-CoV-2 3CLpro (Severe acute respiratory syndrome coronavirus 2, UniProt P0DTD1)
Test: biochemical
Format: biochemical
Conditions: LOPAC1280 primary screen with protease, 5 µM compound, replicate 1
MEASUREMENT NAME: Replicate_1 (LOPAC_screen_w_protease)

COMPOUND	ASSAY VALUE
Cc1nc(N=Nc2ccc(C(=O)O)cc2)c(COP(=O)(O)O)c(C=O)c1O	1.948
N#C/C(=C\c1ccc(O)c(O)c1)C(=O)NCCCNC(=O)/C(C#N)=C/c1ccc(O)c(O)c1	1.008
Oc1cc(-c2ccccc2)nc2nc(Cl)ccc12	0.8933
CCSC(=N)Nc1ccc(C(F)(F)F)cc1.Cl [TFPI hydrochloride]	2.498
Br.Br.N=C(N)SCCN	2.956
C[N+](C)(C)CCOP(=O)([O-])OP(=O)([O-])OC[C@H]1O[C@@H](n2ccc(N)nc2=O)[C@H](O)[C@@H]1O.[Na+] [Citicoline sodium]	0.6867

Note: attention shifts to another entry.
Problem: Write down Replicate_1 (LOPAC_screen_w_protease) measured for item CC(C)Cn1c(=O)n(C)c(=O)c2[nH]cnc21
Result: -0.07674

###

Molecular target: SARS-CoV-2 3CLpro (Severe acute respiratory syndrome coronavirus 2)
Test: biochemical
Type: biochemical
Settings: 4 h, LOPAC1280 primary screen with protease, 5 µM compound, replicate 2; read-out: Replicate_2 (LOPAC_screen_w_protease)
Counter-ions that a name gives are not always drawn.
MEASUREMENT NAME: inhibition at 5 µM (%)
Numbers only, in %.

Example cases with answers are listed next.
COMPOUND	UNIT SYMBOL	ASSAY VALUE
Nc1nc(N)c2nc(CNc3ccc(C(=O)N[C@@H](CCC(=O)O)C(=O)O)cc3)cnc2n1	%	1.52
CCCCC[C@H](CC(=O)NO)C(=O)N[C@H](C(=O)N1CCC[C@H]1CO)C(C)C	%	1.48
NCCc1c[nH]c2ccc(O)cc12 [Serotonin hydrochloride]	%	1.09
C1CCc2nnnn2CC1	%	2.75
CC(=O)OCC(=O)[C@@]1(O)CC[C@H]2[C@@H]3CCC4=CC(=O)CC[C@]4(C)[C@H]3C(=O)C[C@@]21C [Cortisone 21-acetate]	%	0.881

Could you report inhibition at 5 µM for every entry in the following list?
1. CCN1C(=O)C=CC1=O [N-Ethylmaleimide]
2. CC(=O)Oc1ccccc1C(=O)O
3. CCCOc1ccccc1-c1nc2nn[nH]c2c(=O)[nH]1
4. COc1cc(OC)c(C=C2C(O)=Nc3ccccc32)c(OC)c1
5. CCn1nc(C(=O)O)c(=O)c2cc3c(cc21)OCO3
6. CCN(CC)CCOC(=O)c1ccc(N)cc1 [Procaine hydrochloride]

Result:
[-1.33, 1.38, 1.12, 1.3, 4.09, 1.81]

###

Answer each item with its documented inhibition at 5 µM.
Biological target: UniProtKB P0DTD1
Assay: biochemical
Format: biochemical
Settings: 4 h, sheet LOPAC_screen_w_protease; primary screen with protease, compound at 5 µM; mean of two replicates; read-out: mean
Where a name gives a salt, the structure may show the parent alone.
Give bare numbers, in %.

Example cases with answers are listed next.
MOLECULE	TARGET OR SYSTEM	inhibition at 5 µM / %
CCCC1O[C@@H]2C[C@H]3[C@@H]4CCC5=CC(=O)C=C[C@]5(C)[C@H]4[C@@H](O)C[C@]3(C)[C@]2(C(=O)CO)O1 (some centres unmarked) [Budesonide]	UniProtKB P0DTD1	3.01
N#CC(C#N)=Cc1ccc(O)c(O)c1 [Tyrphostin 23]	UniProtKB P0DTD1	3.07
N#C/C(=C\c1ccc(O)c(O)c1)C(=O)NCc1ccccc1 [Tyrphostin AG 490]	UniProtKB P0DTD1	2.61
CNC(=O)OCC[N+](C)(C)C [Methylcarbamylcholine chloride]	UniProtKB P0DTD1	3
Nc1cc(N2CCCCC2)nc(N)[n+]1[O-] [Minoxidil]	UniProtKB P0DTD1	2.95
COC(=O)C1=C(C)NC(C)=C(C(=O)OCCN(C)Cc2ccccc2)C1c1cccc([N+](=O)[O-])c1 (centres unmarked) [Nicardipine hydrochloride]	UniProtKB P0DTD1	2.73

Could you report inhibition at 5 µM for every entry in the following list?
1. CN1C(C(=O)Nc2ccccn2)=C(O)c2ccccc2S1(=O)=O [Piroxicam]
2. CC(=O)CCCCn1c(=O)c2c(ncn2C)n(C)c1=O [Pentoxifylline]
3. CCOC(=O)C(C)(C)Oc1ccc(Cl)cc1 [Clofibrate]

Result:
3.01
2.98
2.71
